System: Clone20 osteoblast Shn3 3'UTR firefly luciferase, 24 h
Assay: Shn3 3'UTR reporter inhibitors, dose response, cell-based, Clone20 osteoblasts, luminescence, dry powder, set 2 (AID 743417)
Inconclusive results are not listed.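 How the source made its calls: active means compounds lowering the luciferase signal with a fitted half-maximal dose at most twice their top valid dose (cut at about 30 µM in these data); inconclusive means flat fits with moderate signal loss, or poor fits; inactive means the rest.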
Hi there, use one of these labels in your reply, thanks! active, inactive

O=C(c1ccc2c(=O)n(-c3ccccc3)c(=S)[nH]c2c1)N1CCCCC1 = active

Challenge: Tell me the assay call for Cc1ccc(C(c2cc(Cl)c3cccnc3c2O)N2CCN(C)CC2)cc1 (stereo not given) please.
Response given: active

Challenge: Tell me the assay call for Cc1ccc(-n2ncc3c2CCCC3NC(=O)c2ocnc2C)cc1C (stereo not given) please.
Response given: active

Challenge: Tell me the assay call for `CN(C(=O)COc1ccccc1C(=O)NCCOc1ccccc1)c1ccccc1` please.
Response given: active

Challenge: Tell me the assay call for `COc1ccc(-n2ncc3c(N4CCCCC4)ncnc32)cc1` please.
Response given: active

Challenge: Tell me the assay call for `Cc1cc(C)n2nc(SCc3cccc(S(=O)(=O)N(C)C)c3)nc2n1` please.
Response given: active
